Data origin: patent US12601000B2

Assay: Solubility limits of LCA and UDCA in organic solvents
Format: physicochemical
Details: organic solvent, organic solvent or mixture, thermodynamic from solid, 2-butanone; read-out: solubility limit
ENDPOINT NAME: solubility
Param answer (str): number followed by unit.

Query :: Look up solubility: "C[C@H](CCC(=O)O)[C@H]1CC[C@H]2[C@@H]3[C@@H](O)C[C@@H]4C[C@H](O)CC[C@]4(C)[C@H]3CC[C@]12C"
Result :: 10000 µg/mL

----------
Assay: Solubility limits of LCA and UDCA in organic solvents
Format: physicochemical
Conditions: organic solvent, organic solvent or mixture, thermodynamic from solid, acetone; read-out: solubility limit
ENDPOINT NAME: solubility (µg/mL)
Kindly answer with a numeric value in µg/mL, unit omitted.

Query :: Which value of solubility has been reported for "C[C@H](CCC(=O)O)[C@H]1CC[C@H]2[C@@H]3[C@@H](O)C[C@@H]4C[C@H](O)CC[C@]4(C)[C@H]3CC[C@]12C" in the records?
Result :: 8800

----------
Test: Solubility limits of LCA and UDCA in organic solvents
Type: physicochemical
Details: organic solvent, organic solvent or mixture, thermodynamic from solid, DMF; read-out: solubility limit
ENDPOINT NAME: solubility

Query :: Param item = C[C@H](CCC(=O)O)[C@H]1CC[C@H]2[C@@H]3[C@@H](O)C[C@@H]4C[C@H](O)CC[C@]4(C)[C@H]3CC[C@]12C [UDCA, ursodeoxycholic acid] ; retrieve measured solubility.
Result :: > 500 mg/mL

----------
Test: Solubility limits of LCA and UDCA in organic solvents
Type: physicochemical
Conditions: organic solvent, organic solvent or mixture, thermodynamic from solid, CH2Cl2; read-out: solubility limit
ENDPOINT NAME: solubility (µg/mL)
Expressed in µg/mL, but write only the number.

Query :: solubility lookup needed for "C[C@H](CCC(=O)O)[C@H]1CC[C@H]2[C@@H]3[C@@H](O)C[C@@H]4C[C@H](O)CC[C@]4(C)[C@H]3CC[C@]12C" , thanks.
Result :: 1100

----------
Assay: Solubility limits of LCA and UDCA in organic solvents
Type: physicochemical
Conditions: organic solvent, organic solvent or mixture, thermodynamic from solid, CHCl3/phenol; read-out: solubility limit
ENDPOINT NAME: solubility (mg/mL)
Provide only the numeric value, understood in mg/mL.

Query :: # query: solubility of entry "C[C@H](CCC(=O)O)[C@H]1CC[C@H]2[C@@H]3[C@@H](O)C[C@@H]4C[C@H](O)CC[C@]4(C)[C@H]3CC[C@]12C"
Result :: 21.3

----------
Assay: Solubility limits of LCA and UDCA in organic solvents
Assay type: physicochemical
Details: organic solvent, organic solvent or mixture, thermodynamic from solid, Et2O; read-out: solubility limit
ENDPOINT NAME: solubility (µg/mL)
Reply with just the number (in µg/mL).

Query :: Return reported solubility; argument: C[C@H](CCC(=O)O)[C@H]1CC[C@H]2[C@@H]3[C@@H](O)C[C@@H]4C[C@H](O)CC[C@]4(C)[C@H]3CC[C@]12C [UDCA, ursodeoxycholic acid]
Result :: 2000

----------
Assay: Solubility limits of LCA and UDCA in organic solvents
Format: physicochemical
Settings: organic solvent, organic solvent or mixture, thermodynamic from solid, isopropanol (IPA); read-out: solubility limit
ENDPOINT NAME: solubility (mg/mL)
Respond numerically; units are mg/mL and should not be typed.

Query :: I'd like to know its solubility. The molecule in question is C[C@H](CCC(=O)O)[C@H]1CC[C@H]2[C@@H]3[C@@H](O)C[C@@H]4C[C@H](O)CC[C@]4(C)[C@H]3CC[C@]12C [UDCA, ursodeoxycholic acid]
Result :: 47.5
